Quick reference: Potency of the listed items.
# system-under-test: Cytochrome P450 2C9 (Homo sapiens) (UniProt P11712)
# Sequence (P11712 whole entry, looked up): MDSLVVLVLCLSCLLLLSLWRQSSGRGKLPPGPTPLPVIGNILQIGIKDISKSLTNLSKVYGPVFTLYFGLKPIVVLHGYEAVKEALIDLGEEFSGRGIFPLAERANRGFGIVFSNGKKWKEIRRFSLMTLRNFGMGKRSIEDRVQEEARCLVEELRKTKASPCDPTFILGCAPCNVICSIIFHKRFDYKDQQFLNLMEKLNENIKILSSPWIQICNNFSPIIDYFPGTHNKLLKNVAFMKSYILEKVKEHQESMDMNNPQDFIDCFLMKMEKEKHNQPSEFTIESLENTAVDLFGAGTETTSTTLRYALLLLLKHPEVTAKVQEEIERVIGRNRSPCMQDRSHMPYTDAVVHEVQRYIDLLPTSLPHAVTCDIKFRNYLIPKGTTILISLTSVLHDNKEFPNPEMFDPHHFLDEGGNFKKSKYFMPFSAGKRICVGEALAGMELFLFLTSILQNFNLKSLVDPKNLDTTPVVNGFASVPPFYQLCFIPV
# test-method-notes: qHTS Assay for Inhibitors and Substrates of Cytochrome P450 2C9 (AID 883); also: potency is read from the fitted curve at half-maximal effect; nearly all actives have a fitted effect of over 60% in size
# condition-context: recombinant CYP2C9, luciferin-H luminescence, 60 min; series mostly up to 11.4 µM
Inconclusive results are not listed. Activity calls are given as the source filed them. Calls follow the shape of the dose curve; as a rule, active = well fitted inhibition curve with a large enough effect; inconclusive = small, poorly fitted or top-dose-only effect; inactive = no such curve, though single readings can be large or run the other way.
experimental-readout: Potency

[[record]]
given_smiles = "O=S1(=O)CCN(c2ccccc2CC(c2c[nH]c3ccccc23)c2c[nH]c3ccccc23)CC1"
experimental_readout = "Potency"
value_reported = "3.16 µM (active)"

[[record]]
given_smiles = "Cc1ccc(C2=C(Cl)C(=O)C(c3ccc(C)cc3)=C(Cl)C2=O)cc1"
experimental_readout = "Potency"
value_reported = "1.58 µM (active)"

[[record]]
given_smiles = "Oc1c(C(O)(c2ccccc2)c2ccc3ccccc3c2O)ccc2ccccc12"
experimental_readout = "Potency"
value_reported = "0.794 µM (active)"


----------
Quick reference: Potency of the listed items.
# system-under-test: Lysosomal acid glucosylceramidase (Homo sapiens) (UniProt P04062)
# Sequence (P04062 whole entry, looked up): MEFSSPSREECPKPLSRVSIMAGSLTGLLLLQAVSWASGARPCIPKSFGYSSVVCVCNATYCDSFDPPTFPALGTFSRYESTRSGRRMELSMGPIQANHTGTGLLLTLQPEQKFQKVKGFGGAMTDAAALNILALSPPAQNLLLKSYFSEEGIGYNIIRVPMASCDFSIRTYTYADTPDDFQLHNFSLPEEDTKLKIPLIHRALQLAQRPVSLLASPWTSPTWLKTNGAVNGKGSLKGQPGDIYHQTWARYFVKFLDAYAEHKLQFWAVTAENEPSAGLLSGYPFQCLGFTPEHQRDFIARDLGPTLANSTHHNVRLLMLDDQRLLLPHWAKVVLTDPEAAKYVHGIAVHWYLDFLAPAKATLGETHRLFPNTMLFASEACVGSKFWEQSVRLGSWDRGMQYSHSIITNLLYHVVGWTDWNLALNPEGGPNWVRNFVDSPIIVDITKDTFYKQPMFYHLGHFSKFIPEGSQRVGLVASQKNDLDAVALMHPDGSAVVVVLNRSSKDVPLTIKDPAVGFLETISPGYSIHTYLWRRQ
# test-method-notes: Glucocerebrosidase-p2 (AID 348); also: potency is read from the fitted curve at half-maximal effect
# condition-context: purified GBA, blue fluorogenic substrate, 40 min
Activity calls are given as the source filed them. Rule as the data show it: active = potency below about 10 µM; inactive = the rest.
experimental-readout: Potency

[[record]]
molecule = "CN(C)CCNCCN"
value_reported = "> 11.4 µM (inactive)"

[[record]]
molecule = "C[C@H](NCCN(C)C)[C@@H]1CCC2C3CCc4cc(O)ccc4[C@H]3CCC21C (stereo partly specified)"
value_reported = "> 11.4 µM (inactive)"

[[record]]
molecule = "CN1CCN(c2ncc3nc(-c4ccccc4)c(=O)n(Cc4ccc(F)cc4)c3n2)CC1"
value_reported = "> 11.4 µM (inactive)"

[[record]]
molecule = "CC(C)c1ccc(/C=C2\\C=C(c3ccc4ccccc4c3)OC2=O)cc1"
value_reported = "> 11.4 µM (inactive)"

[[record]]
molecule = "CC(CO)(CO)N=Cc1cc(I)cc(I)c1O"
value_reported = "> 11.4 µM (inactive)"

[[record]]
molecule = "C[C@H]1CCCC2(CC[N+](C)(CCC[N+](C)(C)C)CC2)C1 (stereo partly specified)"
value_reported = "11.6 µM (inactive)"


----------
# system-under-test: Glucocorticoid receptor (Homo sapiens)
# test-method-notes: GR-GFP Redistribution (AID 450); also: potency is read from the fitted curve at half-maximal effect
# condition-context: U2OS GR-GFP nuclear translocation, laser cytometry, 2 h
Calls of active or inactive are those of the source.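 The calls were made as follows: active = compounds whose dose series gives a full or clear partial fitted curve of increased nuclear translocation; inconclusive = weak partial curve or effect only at the top dose; inactive = no dose-dependent translocation response.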
experimental-readout: Potency

[[record]]
compound = "NNC(=O)[C@@H](O)[C@H](O)[C@H](O)CO"
value_reported = "> 46 µM (inactive)"

[[record]]
compound = "N#CCCn1c(=O)c(-c2cccc(C#N)c2)nc2cnc(Oc3ccccc3)nc21"
value_reported = "> 9.22 µM (inactive)"

[[record]]
compound = "O=C1C=C(N2CCN(c3ccccn3)CC2)C(=O)c2c(O)ccc(O)c21"
value_reported = "> 46 µM (inactive)"

[[record]]
compound = "COc1cc2ccc([C@H](C)NCC#N)cc2cc1OC"
value_reported = "> 46 µM (inactive)"

[[record]]
compound = "O=C(O)NCC1CCCCC1 (tested in a mixture with another compound)"
value_reported = "> 46 µM (inactive)"

[[record]]
compound = "COc1cc(Cl)c(CC(=O)c2c[nH]c3ccccc23)cc1OC"
value_reported = "> 46 µM (inactive)"

[[record]]
compound = "Nc1ccccc1SCc1csc(-c2ccc(Cl)cc2)n1"
value_reported = "> 46 µM (inactive)"

[[record]]
compound = "COc1c(O)ccc2c1CN1CCc3cc4c(cc3[C@@H]1C2)OCO4"
value_reported = "> 46 µM (inactive)"

[[record]]
compound = "NNC(=O)CNc1cccc(Br)c1"
value_reported = "> 46 µM (inactive)"

[[record]]
compound = "O=c1c(CCc2ccccc2)nc2cnc(Oc3cccc(Cl)c3)nc2n1C[C@H]1CCCO1"
value_reported = "> 9.22 µM (inactive)"

[[record]]
compound = "O=C(CSc1nc2ccc([N+](=O)[O-])cc2s1)c1ccc2ccccc2c1"
value_reported = "> 46 µM (inactive)"

